Tested on: DMS 114 tumor spheroids, viability % test/control
Assay: Anticancer human tumor DMS 114 cell line growth inhibition;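 note: spheroids exposed to compounds for 7 days before read-out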
Conditions: curve of first compound; second compound 0.03 µM; spheroids with HUVEC and MSC
Method: Multicellular complex tumor spheroid response to DNA repair inhibitors in combination with DNA-damaging drugs This study explores the anticancer activities of DNA-damaging drugs and inhibitors of DNA damage repair, both as single agents and in combinations. […] Twenty-six patient-derived or established malignant cell lines were evaluated representing sarcoma, melanoma, small cell lung cancer (SCLC), non-small cell lung cancer (NSCLC), as well as bladder, ovarian and pancreatic cancers. […]
Kindly supply the reported IC50 values for the records listed here.

Ask: Short answer please: IC50, DMS 114 tumor spheroids, viability % test/control, entry Cc1cc(C)c(CNC(=O)c2cc(-c3ccc(CN4CCOCC4)cc3)cc3c2cnn3C2CCCC2)c(=O)[nH]1 + CC[C@@]1(O)C(=O)OCc2c1cc1n(c2=O)Cc2cc3c(CN(C)C)c(O)ccc3nc2-1
Result: < 31.6 nM

Ask: Here is the next molecule: Cc1sc2c(c1C)C(c1ccc(Cl)cc1)=NC(CC(=O)Nc1ccc(O)cc1)c1nnc(C)n1-2 (stereo not given) + CC[C@@]1(O)C(=O)OCc2c1cc1n(c2=O)Cc2cc3c(CN(C)C)c(O)ccc3nc2-1
Result: < 9.49 nM

Ask: Here is the next molecule: COc1cc(C)[nH]c(=O)c1CN1CCc2c(Cl)cc(C(OC)C3COC3)c(Cl)c2C1=O (stereo not given) + CC[C@@]1(O)C(=O)OCc2c1cc1n(c2=O)Cc2cc3c(CN(C)C)c(O)ccc3nc2-1
Result: < 31.6 nM

Ask: Here is the next molecule: O=C(c1cc(Cc2n[nH]c(=O)c3ccccc23)ccc1F)N1CCN(C(=O)C2CC2)CC1 + CC[C@@]1(O)C(=O)OCc2c1cc1n(c2=O)Cc2cc3c(CN(C)C)c(O)ccc3nc2-1
Result: < 94.9 nM

Ask: Here is the next molecule: CNCc1ccc(-c2cc(-c3nc(-c4ccc(S(=O)(=O)C(C)C)cc4)cnc3N)on2)cc1 + CC[C@@]1(O)C(=O)OCc2c1cc1n(c2=O)Cc2cc3c(CN(C)C)c(O)ccc3nc2-1
Result: < 9.49 nM

Entry source: PubChem BioAssay AID1845202
